# Test system: UO-31
# Assay Explanation: Cytotoxicity against human UO31 cells assessed as cell growth at 10 uM after 48 hrs by SRB assay relative to control
# Format: functional
# Experimental Context: UO-31, 48 h, read-out: Activity
Observable: growth at 10 µM (%)
Express it in %; write the number only.

Below: 5 molecules and their reported growth at 10 µM.
- Compound Structure: "O=C(CCc1nnc2sc(S)nn12)c1nc2ccccc2[nH]1"
  Target: "UO-31"
  Unit Label: "%"
  Result Value: 76.6
- Compound Structure: "O=C(CCc1nnc2sc(CS)nn12)c1nc2ccccc2[nH]1"
  Target: "UO-31"
  Unit Label: "%"
  Result Value: 79.4
- Compound Structure: "O=C(CCc1nnc2sc(-c3ccc(O)cc3)nn12)c1nc2ccccc2[nH]1"
  Target: "UO-31"
  Unit Label: "%"
  Result Value: 67.7
- Compound Structure: "CCOC1=Nn2c(CCC(=O)c3nc4ccccc4[nH]3)nnc2SC1"
  Target: "UO-31"
  Unit Label: "%"
  Result Value: 80.3
- Compound Structure: "O=C(CCc1nnc2sc(Cc3ccccc3Cl)nn12)c1nc2ccccc2[nH]1"
  Target: "UO-31"
  Unit Label: "%"
  Result Value: 63

Lookup: Give the measured growth at 10 µM of NCCCc1nn2c(CCC(=O)c3nc4ccccc4[nH]3)nnc2s1 .
Found: 73.8

Lookup: What about this molecule? O=C(CCc1nnc2n1N=C(Cl)CS2)c1nc2ccccc2[nH]1
Found: 78.9

Lookup: What about this molecule? O=C(CCc1nnc2sc(CCl)nn12)c1nc2ccccc2[nH]1
Found: 83.9

Lookup: What about this molecule? O=C(CCc1nnc2sc(-c3ccccc3O)nn12)c1nc2ccccc2[nH]1
Found: 51.3

Lookup: What about this molecule? O=C(CCc1nnc2sc(CCCl)nn12)c1nc2ccccc2[nH]1
Found: 80.1

Lookup: What about this molecule? C=Cc1nn2c(CCC(=O)c3nc4ccccc4[nH]3)nnc2s1
Found: 76.2

Lookup: What about this molecule? C/C=C\c1nn2c(CCC(=O)c3nc4ccccc4[nH]3)nnc2s1
Found: 54.9
